This collection of values is drawn from paper PMC11707192.

# target system: T1, UHRF1 PHD domain (298-367) (human, UniProt Q96T88 298-367)
# T1 sequence (looked up): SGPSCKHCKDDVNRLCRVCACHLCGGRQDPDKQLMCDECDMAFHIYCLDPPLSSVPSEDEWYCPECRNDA
# protocol description: ITC
property measured: pKd
# log scale: pKd equals minus log10 of the concentration in mol/L

QSAFPKRRVRTLLSVLKDPIAKMRRLVRIEQRQKRLEGNE (peptide, UniProt Q8QZY3 80-119, looked up) [mSTE-1 (peptide of the mSTELLA Swap1 region, residues 80-119)] : 7.04

Switching to the query record.
Given the binder EDEWLYSRRGVRTLLSVQREKMARLRYMLLGGVRTHERRPTNKEPKG (peptide, UniProt Q6W0C5 75-121, looked up) [hSTE-1 (peptide of the hSTELLA Swap1 region, residues 75-121)] , write its reported pKd.
6.09
